Test system: 422866-222-R5-J1-PDC spheroids with HUVEC/MSC, viability;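 note: spheroids exposed to compounds for seven days before reading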
Assay Details: Anticancer human tumor 422866-222-R5-J1-PDC patient-derived pancreatic adenocarcinoma cell line growth inhibition [GQUAD]
Measurement Conditions: curve of first compound; second compound 3.16 µM
pIC50: −log10 of the molar value.
Documented pIC50 across a set of compounds
Reported Property: pIC50

compound="Nc1ccn(C2OC(CO)C(O)C2(F)F)c(=O)n1 (stereo not given) + CN(C)c1ccc(Nc2c3ccc(NC(=O)CCN4CCCC4)cc3nc3cc(NC(=O)CCN4CCCC4)ccc23)cc1" reported_property=pIC50 reading_qualifier== measurement=6.56
compound="C=CC(=O)N1CCN(c2nc(=O)n(-c3c(C)ccnc3C(C)C)c3nc(-c4c(O)cccc4F)c(F)cc23)C(C)C1 (stereo not given) + Cc1[nH]c2ccc(F)cc2c1-c1nc2c3cccnc3c3ncccc3c2[nH]1" reported_property=pIC50 reading_qualifier=> measurement=7.50
compound="CCc1c2c(nc3ccc(O)cc13)-c1cc3c(c(=O)n1C2)COC(=O)[C@]3(O)CC + Cc1[nH]c2ccc(F)cc2c1-c1nc2c3cccnc3c3ncccc3c2[nH]1" reported_property=pIC50 reading_qualifier== measurement=8.84
compound="CC(C)(O)C1CCC(Nc2ccc3ncc(-c4cccc(C(F)(F)F)c4)n3n2)CC1 (stereo not given) + CN(C)c1ccc(Nc2c3ccc(NC(=O)CCN4CCCC4)cc3nc3cc(NC(=O)CCN4CCCC4)ccc23)cc1" reported_property=pIC50 reading_qualifier== measurement=5.80
compound="CC(=O)O[C@H]1C(=O)[C@@]2(C)[C@H]([C@H](OC(=O)c3ccccc3)[C@]3(O)C[C@H](OC(=O)[C@H](O)[C@@H](NC(=O)c4ccccc4)c4ccccc4)C(C)=C1C3(C)C)[C@]1(OC(C)=O)CO[C@@H]1C[C@@H]2O + CN(C)c1ccc(Nc2c3ccc(NC(=O)CCN4CCCC4)cc3nc3cc(NC(=O)CCN4CCCC4)ccc23)cc1" reported_property=pIC50 reading_qualifier=< measurement=5.00
